Recorded values, source PubChem BioAssay (NCATS).

# Tested on: Nuclear receptor subfamily 1 group I member 2 (Rattus norvegicus) (UniProt Q9R1A7)
# Sequence (Q9R1A7 whole entry, looked up): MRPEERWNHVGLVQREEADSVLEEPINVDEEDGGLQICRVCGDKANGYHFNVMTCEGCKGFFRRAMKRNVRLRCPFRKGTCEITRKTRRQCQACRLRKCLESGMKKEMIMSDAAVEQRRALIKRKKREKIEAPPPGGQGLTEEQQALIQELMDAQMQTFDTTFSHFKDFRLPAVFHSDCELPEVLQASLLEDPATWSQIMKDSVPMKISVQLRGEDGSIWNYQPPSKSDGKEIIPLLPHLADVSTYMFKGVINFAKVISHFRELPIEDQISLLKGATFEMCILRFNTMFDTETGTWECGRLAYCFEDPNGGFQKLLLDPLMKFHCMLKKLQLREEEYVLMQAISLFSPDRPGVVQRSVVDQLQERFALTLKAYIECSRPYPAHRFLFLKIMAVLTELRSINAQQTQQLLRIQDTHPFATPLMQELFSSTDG
# Test protocol: qHTS assay for small molecule activators of the rat pregnane X receptor (rPXR) signaling pathway (AID 651751); further: 0% is about no effect
# Measurement setup: rPXR reporter cells, luciferase (One-Glo), 24 h
A collection of compounds and their measured max response
Parameter: max response (%)

[[record]]
compound = "CC(C)(C)CC(C)(C)c1ccc(OCCO)cc1"
tested_on = "Nuclear receptor subfamily 1 group I member 2 (Rattus norvegicus) (UniProt Q9R1A7)"
parameter = "max response"
units_text = "%"
recorded_number = -14.4

[[record]]
compound = "CCCCC(CC)COS(=O)(=O)O (centres undefined)"
tested_on = "Nuclear receptor subfamily 1 group I member 2 (Rattus norvegicus) (UniProt Q9R1A7)"
parameter = "max response"
units_text = "%"
recorded_number = 0.915

[[record]]
compound = "CC1=CCC2CC1C2(C)C (centres undefined)"
tested_on = "Nuclear receptor subfamily 1 group I member 2 (Rattus norvegicus) (UniProt Q9R1A7)"
parameter = "max response"
units_text = "%"
recorded_number = 1.07

[[record]]
compound = "OCc1ccccc1"
tested_on = "Nuclear receptor subfamily 1 group I member 2 (Rattus norvegicus) (UniProt Q9R1A7)"
parameter = "max response"
units_text = "%"
recorded_number = 22.6

[[record]]
compound = "CCCCCCCCCCCCCCCCCC(=O)OC[C@@H](O)[C@H]1OC[C@H](O)[C@H]1O"
tested_on = "Nuclear receptor subfamily 1 group I member 2 (Rattus norvegicus) (UniProt Q9R1A7)"
parameter = "max response"
units_text = "%"
recorded_number = 2.96

[[record]]
compound = "C[C@H](CCC(=O)O)[C@H]1CC[C@H]2[C@@H]3[C@H](O)C[C@@H]4C[C@H](O)CC[C@]4(C)[C@H]3C[C@H](O)[C@]12C"
tested_on = "Nuclear receptor subfamily 1 group I member 2 (Rattus norvegicus) (UniProt Q9R1A7)"
parameter = "max response"
units_text = "%"
recorded_number = -1

[[record]]
compound = "Cc1ccc(S(=O)(=O)NCl)cc1"
tested_on = "Nuclear receptor subfamily 1 group I member 2 (Rattus norvegicus) (UniProt Q9R1A7)"
parameter = "max response"
units_text = "%"
recorded_number = -0.198

[[record]]
compound = "CC(C)CCC[C@@H](C)[C@H]1CC[C@H]2[C@@H]3CC=C4C[C@@H](O)CC[C@]4(C)[C@H]3CC[C@]12C"
tested_on = "Nuclear receptor subfamily 1 group I member 2 (Rattus norvegicus) (UniProt Q9R1A7)"
parameter = "max response"
units_text = "%"
recorded_number = -2.23

[[record]]
compound = "OC[C@H]1O[C@@](CO)(O[C@H]2O[C@H](CO)[C@@H](O)[C@H](O)[C@H]2O)[C@@H](O)[C@@H]1O"
tested_on = "Nuclear receptor subfamily 1 group I member 2 (Rattus norvegicus) (UniProt Q9R1A7)"
parameter = "max response"
units_text = "%"
recorded_number = 1.07


---

# Tested on: Glutathione peroxidase 1 (Homo sapiens) (UniProt P07203)
# Sequence (P07203 whole entry, looked up): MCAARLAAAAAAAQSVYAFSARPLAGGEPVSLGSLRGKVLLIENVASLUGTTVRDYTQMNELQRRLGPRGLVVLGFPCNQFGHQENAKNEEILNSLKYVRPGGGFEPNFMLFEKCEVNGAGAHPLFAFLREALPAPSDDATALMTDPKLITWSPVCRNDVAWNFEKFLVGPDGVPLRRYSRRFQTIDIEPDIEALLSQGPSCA
# Test protocol: Primary qHTS Assay for Inhibitors of Recombinant Selenoprotein Glutathione Peroxidase 1 (GPX1) (AID 1845191); further: nearly all actives have a fitted effect of over 65% in size
# Measurement setup: recombinant GPX1, GR-coupled NADPH fluorescence, 15 min; series mostly up to 48.8 µM
Inconclusive results are not listed. Active and inactive are the calls of the source. The call rests on the fitted dose curve; in most records, active means well fitted inhibition curve with a large enough effect; inconclusive means small, poorly fitted or top-dose-only effect; inactive means flat fitted curve, though single readings scatter.
Parameter: outcome

[[record]]
molecule = "CCCCCCCCCCCCCCCCCCCCCC(=O)Nc1ccn([C@@H]2O[C@H](CO)[C@@H](O)[C@@H]2O)c(=O)n1"
result = "inactive"

[[record]]
molecule = "C(=C\\c1ccncc1)/c1ccccc1"
result = "inactive"

[[record]]
molecule = "CCCC(CCC)C(=O)OC1C[C@H]2CC[C@@H](C1)[N+]2(C)C (stereo partly drawn)"
result = "inactive"


---

# System: DIV17
# Test protocol: qHTS profiling for inhibitors of Plasmodium falciparum proliferation (AID 504749); further: nearly all actives have a fitted effect of over 60% in size
# Measurement setup: P. falciparum in erythrocytes, SYBR Green DNA, 72 h; series mostly up to 28.7 µM
Records with an inconclusive call do not appear. The source made the active and inactive calls. The call rests on the fitted dose curve; in most records, active means well fitted inhibition curve with a large enough effect; inconclusive means small, poorly fitted or top-dose-only effect; inactive means flat fitted curve, though single readings scatter.
Classes used: active, inactive

[[record]]
molecule = "Cc1cccc(Nc2ncccc2C(=O)O)c1C"
category_label = "inactive"

[[record]]
molecule = "CC(CN(C)C)CN1c2ccccc2Sc2ccc(C(F)(F)F)cc21 (stereo not drawn)"
category_label = "active"

[[record]]
molecule = "C[C@H](CCC(=O)O)[C@H]1CC[C@H]2[C@@H]3CC[C@@H]4C[C@H](O)CC[C@]4(C)[C@H]3C[C@H](O)[C@]12C"
category_label = "inactive"

[[record]]
molecule = "O=C1c2ccccc2C(=O)C1c1ccc(Cl)cc1"
category_label = "inactive"

[[record]]
molecule = "O=C(CCCN1CCC(C(=O)c2ccc(F)cc2)CC1)c1ccc(F)cc1"
category_label = "active"

[[record]]
molecule = "OC1OC[C@@H](O)[C@H](O)[C@@H]1O (stereo partly drawn)"
category_label = "inactive"

[[record]]
molecule = "CCCCCCCCCCCCOCCCN"
category_label = "inactive"

[[record]]
molecule = "NC(=O)[C@H]1O[C@@H](O)[C@H](O)[C@@H](O)[C@@H]1O"
category_label = "inactive"

[[record]]
molecule = "CC(C)c1ncc([N+](=O)[O-])n1C"
category_label = "inactive"

[[record]]
molecule = "CCOC(=S)SSC(=S)OCC"
category_label = "inactive"

[[record]]
molecule = "CC1=CC(=O)NS(=O)(=O)O1"
category_label = "inactive"

[[record]]
molecule = "CCCc1ccc(C(=O)O)cc1"
category_label = "inactive"

[[record]]
molecule = "ClC(Cl)Cl"
category_label = "inactive"


---

# System: FAB9
# Test protocol: qHTS profiling for inhibitors of Plasmodium falciparum proliferation (AID 504749); further: nearly all actives have a fitted effect of over 60% in size
# Measurement setup: P. falciparum in erythrocytes, SYBR Green DNA, 72 h; series mostly up to 28.7 µM
Inconclusive results are not listed. The source made the active and inactive calls. Calls follow the shape of the dose curve; as a rule, active = well fitted inhibition curve with a large enough effect; inconclusive = small, poorly fitted or top-dose-only effect; inactive = flat fitted curve, though single readings scatter.
Classes used: active, inactive

[[record]]
molecule = "CC/C=C\\C/C=C\\C/C=C\\CCCCCCCC(=O)O"
category_label = "inactive"

[[record]]
molecule = "Oc1cccc(O)c1O"
category_label = "inactive"

[[record]]
molecule = "CCN(CC)C(=S)S"
category_label = "inactive"

[[record]]
molecule = "CCCOC(=O)c1ccccc1O"
category_label = "inactive"

[[record]]
molecule = "C=CC[C@@H]1/C=C(\\C)C[C@H](C)C[C@H](OC)[C@H]2O[C@@](O)(C(=O)C(=O)N3CCCC[C@H]3C(=O)O[C@H](/C(C)=C/[C@@H]3CC[C@@H](O)[C@H](OC)C3)[C@H](C)[C@@H](O)CC1=O)[C@H](C)C[C@@H]2OC"
category_label = "active"

[[record]]
molecule = "OC[C@H]1O[C@@](CO)(O[C@H]2O[C@H](CO)[C@@H](O)[C@H](O)[C@H]2O)[C@@H](O)[C@@H]1O"
category_label = "inactive"

[[record]]
molecule = "CC(=O)[C@H]1CC[C@H]2[C@@H]3C=CC4=CC(=O)CC[C@@]4(C)[C@H]3CC[C@]12C"
category_label = "inactive"

[[record]]
molecule = "C=CC(C)(O)CC/C=C(\\C)CCC=C(C)C (stereo not given)"
category_label = "inactive"

[[record]]
molecule = "CCC(Cc1c(I)cc(I)c(O)c1I)C(=O)O (stereo not given)"
category_label = "inactive"

[[record]]
molecule = "Cc1ccc(S(=O)(=O)NCl)cc1"
category_label = "inactive"

[[record]]
molecule = "O=C1N=C2SCCN2C(=O)C1Cc1ccc(Cl)cc1 (stereo not given)"
category_label = "inactive"

[[record]]
molecule = "CCN(CC)CCOc1ccc2nc(N(C)C)sc2c1"
category_label = "inactive"

[[record]]
molecule = "OC/C=C/c1ccccc1"
category_label = "inactive"

[[record]]
molecule = "N[C@H](CC(=O)O)C(=O)O"
category_label = "inactive"

[[record]]
molecule = "CNC(=O)C[C@@H](N)C(=O)N[C@@H](C(=O)N[C@@H]1C(=O)N2[C@@H]1SC(C)(C)[C@@H]2C(=O)O)c1ccc(O)cc1"
category_label = "inactive"

[[record]]
molecule = "CCc1ccc(S(=O)(=O)O)cc1"
category_label = "inactive"

[[record]]
molecule = "ClC(Cl)Cl"
category_label = "inactive"

[[record]]
molecule = "CC(C)Cc1ccc([C@@H](C)C(=O)NS(C)(=O)=O)cc1"
category_label = "inactive"

[[record]]
molecule = "C[C@H](CCCC(C)(C)O)[C@H]1CC[C@H]2[C@@H]3CC=C4C[C@@H](O)CC[C@]4(C)[C@H]3CC[C@]12C"
category_label = "inactive"

[[record]]
molecule = "CCCc1nc(C(C)(C)O)c(C(=O)OCc2oc(=O)oc2C)n1Cc1ccc(-c2ccccc2-c2nn[nH]n2)cc1"
category_label = "inactive"

[[record]]
molecule = "C[Si](C)(C)O[Si](C)(C)C"
category_label = "inactive"

[[record]]
molecule = "Cc1ccccn1"
category_label = "inactive"

[[record]]
molecule = "COc1cc(NCCCC(C)N)c2ncccc2c1 (stereo not given)"
category_label = "active"

[[record]]
molecule = "O=C1CCC(c2ccccc2)(C2CCN(Cc3ccccc3)CC2)C(=O)N1 (stereo not given)"
category_label = "inactive"

[[record]]
molecule = "NC(=S)NS(=O)(=O)c1ccc(N)cc1"
category_label = "inactive"

[[record]]
molecule = "CC1=CCC2CC1C2(C)C (stereo not given)"
category_label = "inactive"

[[record]]
molecule = "O=C(O[C@H]1CN2CCC1CC2)N1CCc2ccccc2[C@@H]1c1ccccc1"
category_label = "inactive"

[[record]]
molecule = "Cc1ncc[nH]1"
category_label = "inactive"

[[record]]
molecule = "NCCN"
category_label = "inactive"

[[record]]
molecule = "O=C(O)[C@H]1CN(C/C=C/P(=O)(O)O)CCN1"
category_label = "inactive"

[[record]]
molecule = "O=C(NCCNCC(O)COc1ccc(O)cc1)N1CCOCC1 (stereo not given)"
category_label = "inactive"

[[record]]
molecule = "N=C(N)n1cccn1"
category_label = "inactive"

[[record]]
molecule = "O=C1NCCN1c1ncc([N+](=O)[O-])s1"
category_label = "inactive"

[[record]]
molecule = "CCCCCCCCCCCC(=O)N(CCO)CCO"
category_label = "inactive"

[[record]]
molecule = "N=C(N)c1ccc(/C=C/c2ccc(C(=N)N)cc2O)cc1"
category_label = "active"

[[record]]
molecule = "Cc1cccc(C)c1NC(=O)C1CCCCN1C (stereo not given)"
category_label = "inactive"

[[record]]
molecule = "O=C(O)COc1ccccc1/C=N/NC(=O)c1ccncc1"
category_label = "inactive"

[[record]]
molecule = "FC(F)(F)COCC(F)(F)F"
category_label = "inactive"

[[record]]
molecule = "O=C1c2ccccc2C(=O)C1c1ccc(Cl)cc1"
category_label = "inactive"

[[record]]
molecule = "COC(=O)CC[C@H](N)C(=O)O"
category_label = "inactive"

[[record]]
molecule = "C[Se]CC[C@H](N)C(=O)O"
category_label = "inactive"

[[record]]
molecule = "C[C@H]1O[C@@H](O[C@H]2[C@@H](O)C[C@H](O[C@H]3[C@@H](O)C[C@H](O[C@H]4CC[C@@]5(C)[C@H](CC[C@@H]6[C@@H]5C[C@@H](O)[C@]5(C)[C@@H](C7=CC(=O)OC7)CC[C@]65O)C4)O[C@@H]3C)O[C@@H]2C)C[C@H](O)[C@@H]1O"
category_label = "inactive"

[[record]]
molecule = "O=C(O)[C@H]1C(=CCO)O[C@H]2CC(=O)N12"
category_label = "inactive"

[[record]]
molecule = "Cc1c(C)c2c(c(C)c1OC(=O)CCC(=O)O)CC[C@@](C)(CCC[C@H](C)CCC[C@H](C)CCCC(C)C)O2"
category_label = "inactive"

[[record]]
molecule = "NC(=O)CC[C@@H]1NC(=O)[C@H](Cc2ccccc2)NC(=O)[C@H](Cc2ccc(O)cc2)NC(=O)[C@@H](N)CSSC[C@@H](C(=O)N2CCC[C@H]2C(=O)N[C@@H](CCCN=C(N)N)C(=O)NCC(N)=O)NC(=O)[C@H](CC(N)=O)NC1=O"
category_label = "inactive"

